Overview of reported % Inhibition (FS) across a group of compounds:
- Target under test: β-secretase(BACE) (Homo sapiens, UniProt P56817)
- Construct: purchased Panvera
- Sequence (P56817 46-501): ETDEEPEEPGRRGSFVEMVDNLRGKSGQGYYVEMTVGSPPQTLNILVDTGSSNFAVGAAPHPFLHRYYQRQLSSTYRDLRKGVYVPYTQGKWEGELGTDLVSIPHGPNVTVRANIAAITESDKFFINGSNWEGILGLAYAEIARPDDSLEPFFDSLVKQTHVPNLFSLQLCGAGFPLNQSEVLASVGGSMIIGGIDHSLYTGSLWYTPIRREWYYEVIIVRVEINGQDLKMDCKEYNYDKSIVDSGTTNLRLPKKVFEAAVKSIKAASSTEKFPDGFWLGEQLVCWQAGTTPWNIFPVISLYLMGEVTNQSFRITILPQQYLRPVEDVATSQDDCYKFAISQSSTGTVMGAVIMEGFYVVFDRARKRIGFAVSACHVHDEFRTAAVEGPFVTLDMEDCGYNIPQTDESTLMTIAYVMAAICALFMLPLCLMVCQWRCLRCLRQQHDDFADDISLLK
- Assay comment: BACE FS1% Inhibition Assay
- Format: biochemical
- Condition summary: 1 μM test compound; FS1 substrate
Value type: % Inhibition (FS) (%)

> print(dat)
                                   compound  value.qualifier  test.value
1  CCCCC(CC)C(=O)NCCN1Cc2cc(-c3ccc4ccccc4c3)ccc2N=C1N (stereo not shown)                <          30
2  NC1=Nc2ccc(-c3ccccc3Cl)cc2CN1CCNC(=O)C1CCOCC1                =          82
3  CN(C(=O)CCC(C1CCCCC1)N1Cc2cc(Oc3ccccc3)ccc2N=C1N)C1(C(=O)O)CCCCC1 (stereo not shown)                =         −38
4  CCCC(=O)NCCN1Cc2cc(-c3cnc4ccccc4c3)ccc2N=C1N                <          30

----------
- Target under test: β-secretase(BACE) (Homo sapiens)
- Construct: purchased Panvera
- Assay comment: BACE % Inhibition Assay ((Aedens)-[…]-(Dabcyl K-amide) substrate)
- Type: biochemical
- Condition summary: 10 μM test compound; % error ±10%
Value type: % Inhibition

> print(dat)
                                    compound                 target.under.test  test.value
 1     CCOC(=O)CCN1Cc2cc(Oc3ccccc3)ccc2N=C1N  β-secretase(BACE) (Homo sapiens)        <30%
 2  CN(C(=O)[C@@H]1CCCC[C@@H]1N1Cc2cc(Oc3ccccc3)ccc2N=C1N)C1CCCCC1  β-secretase(BACE) (Homo sapiens)        <30%
 3  CCCN1Cc2cc(Oc3cccc(N(C#N)CC4CCCCC4)c3)ccc2N=C1N  β-secretase(BACE) (Homo sapiens)         79%
 4      CCN(CC)CCN1Cc2cc(Oc3ccccc3)ccc2N=C1N  β-secretase(BACE) (Homo sapiens)        <30%
 5  CC(C)(C)OC(=O)N1CCC(N2Cc3cc(Oc4ccccc4)ccc3N=C2N)C1 (stereo not drawn)  β-secretase(BACE) (Homo sapiens)        <30%
 6  CN(C(=O)[C@@H]1CCC[C@@H]1N1Cc2cc(Oc3ccccc3)ccc2N=C1N)C1CCCCC1  β-secretase(BACE) (Homo sapiens)        <30%
 7  CN(C(=O)C1CCC(CN2Cc3cc(Oc4ccccc4)ccc3N=C2N)CC1)C1CCCCC1 (stereo not drawn)  β-secretase(BACE) (Homo sapiens)        <30%
 8  CCCC(CCC(=O)N(C)C1CCCCC1)N1Cc2cc(Oc3ccccc3)ccc2N=C1N (stereo not drawn)  β-secretase(BACE) (Homo sapiens)         80%
 9  Cc1ccc(S(=O)(=O)NCCN2Cc3cc(Oc4ccccc4)ccc3N=C2N)cc1  β-secretase(BACE) (Homo sapiens)         58%
10  CCCC(CCCC(=O)N(CC)C1CCCCC1)N1Cc2cc(Oc3ccccc3)ccc2N=C1N (stereo not drawn)  β-secretase(BACE) (Homo sapiens)        <30%
11  CCCN1Cc2cc(Oc3cccc(NC(=O)C4CCCCC4)c3)ccc2N=C1N  β-secretase(BACE) (Homo sapiens)         31%
12  CN(C(=O)[C@@H]1CC[C@H](N2Cc3cc(Oc4ccccc4)ccc3N=C2N)C1)C1CCCCC1  β-secretase(BACE) (Homo sapiens)        <30%
